# assay_protocol: HEK293 cell cytotoxicity, dose response, cytotoxicity control, plate reader, cherry-picked samples (AID 743446)
# condition_summary: active compounds read low; at 26 µM unless noted
Potency and affinity values are given separately. The source made the active and inactive calls. How the calls were made is not given here.
max activity values by entry

# smi, max activity
rows = [
    ("Cc1ccc2nc(-c3ccc(Br)cc3)cn2c1", "0% [setting not given] (inactive)"),
    ("COc1ccc(S(=O)(=O)N2CCN(C(=O)c3ccc(C)o3)CC2)cc1", "29.4% [at 0.195 µM] (inactive)"),
    ("COc1ccc2sc(NC(=O)c3ccco3)nc2c1", "18.6% [at 0.05 µM] (inactive)"),
    ("CC(C)NC(=O)Nc1ccc2c(c1)C(=O)N([C@H](C)CO)C[C@@H](C)[C@H](CN(C)S(C)(=O)=O)OCCCC[C@H](C)O2", "43.1% (inactive)"),
    ("Cc1cnc(NC(=O)COc2ccccc2Cl)s1", "11.6% (inactive)"),
    ("Cc1ccc2nc(NC(=O)CCCC(=O)O)sc2c1", "12.5% (inactive)"),
]

* * *

# assay_protocol: HEK293 cell cytotoxicity, dose response, cytotoxicity control, plate reader, cherry-picked samples (AID 743446)
# condition_summary: active compounds read low; at 26 µM unless noted
Potency and affinity values are given separately. Active and inactive are the calls of the source. How the calls were made is not given here.
max activity values by entry

# molecule, max activity
data = [
    ("N#C[C@@H]1[C@H](c2ccc(C#Cc3cccc(F)c3)cc2)[C@@H](CO)N1C(=O)C1CC1", "10.4% [at 12 µM] (inactive)"),
    ("O=C(CN1C(=O)c2ccccc2S1(=O)=O)c1ccc(F)cc1", "63.1% (inactive)"),
    ("Cc1ccc(C(=O)NC2CCCCCCC2)c(Cl)c1", "-18.7% [at 0.38 µM] (inactive)"),
    ("C[C@H](CO)N1C[C@H](C)[C@H](CN(C)C(=O)Nc2cccc3ccccc23)OCCCC[C@H](C)Oc2ccc(NC(=O)c3ccccc3)cc2C1=O", "31.2% [at 12 µM] (inactive)"),
    ("Cc1cc(C(=O)CN2C(=O)c3ccccc3S2(=O)=O)c(C)n1C(C)C", "-20.6% [at 3 µM] (inactive)"),
    ("Cc1cccc(-n2ncc3c(N4CCOCC4)ncnc32)c1", "28.5% (inactive)"),
    ("Cc1ccnc(N2C(=O)c3ccccc3C2Nc2ccc3c(c2)OCCO3)c1 (stereo not given)", "25.2% [at 0.05 µM] (inactive)"),
    ("CC(C)(C)c1ccc(Cn2c(=O)cnc3ccccc32)cc1", "-26.8% [at 12 µM] (inactive)"),
    ("Cc1cc(C)c(C)c(S(=O)(=O)N2CCN(c3ncnc4ccccc34)CC2)c1C", "62% [at 1.6 µM] (inactive)"),
    ("CC(=O)N1CCCC(c2cc(C(=O)Nc3ccccc3)no2)C1 (stereo not given)", "-27% [at 12 µM] (inactive)"),
    ("O=C(COC(=O)c1ccccc1C(=O)c1ccc(Cl)c([N+](=O)[O-])c1)NC1CC1", "8.38% [at 6 µM] (inactive)"),
    ("CC(C)N(C(=O)Nc1ccc2nsnc2c1)C(C)C", "12.5% (inactive)"),
    ("Cc1ccnc(Nc2nc(-c3sc(C)nc3C)cs2)c1", "-16.3% [at 6 µM] (inactive)"),
    ("O=C(Nc1nc2ccccc2[nH]1)c1ccc(Cl)cc1", "71.5% [at 0.8 µM] (inactive)"),
    ("C[C@@H]1CN([C@@H](C)CO)C(=O)c2cccc(NC(=O)c3ccc(-c4nccs4)cc3)c2O[C@@H]1CN(C)C(=O)Nc1ccc(C(F)(F)F)cc1", "-9.8% (inactive)"),
    ("Cc1ccc2nc(-c3ccc(NC(=O)c4cccnc4)cc3)oc2c1", "-17.1% [at 0.1 µM] (inactive)"),
    ("O=C(Nc1ccc(N2CCOCC2)cc1)c1cnccn1", "-6.24% [at 3 µM] (inactive)"),
    ("O=C(c1ccccc1)N1CCSc2sccc2C1=O", "36.7% (inactive)"),
    ("CC(C)C(=O)N1CCN(c2ccc(NC(=O)COc3ccccc3[N+](=O)[O-])cc2)CC1", "-46.9% (inactive)"),
    ("Cc1ccc(-c2cnn3c(N4CCOCC4)cc(C)nc23)cc1", "35.7% [at 0.38 µM] (inactive)"),
    ("c1ccc(COc2cccc(-c3cc4nc(NCCCn5ccnc5)ccn4n3)c2)cc1", "48.7% [at 0.195 µM] (inactive)"),
    ("CO[C@@H]1CN(C)C(=O)c2cc(NC(C)=O)ccc2OC[C@@H](C)N(Cc2ccc(F)cc2)C[C@@H]1C", "59.8% [at 0.05 µM] (inactive)"),
    ("O=C(O)c1cccc(COc2ccc(CO)cc2Cl)c1", "13.3% [at 6 µM] (inactive)"),
    ("CC(=O)c1ccc(Nc2nc(-c3sc(C)nc3C)cs2)cc1", "-13.6% (inactive)"),
    ("CCCc1nc(SCC(=O)N2CCC(Cc3ccccc3)CC2)c2c(=O)n(C)c(=O)n(C)c2n1", "11.8% [at 0.05 µM] (inactive)"),
    ("COc1cccc(-c2cc(C(=O)N3CCCCCC3)no2)c1", "-9.64% [at 12 µM] (inactive)"),
    ("C[C@H]1CN([C@@H](C)CO)C(=O)c2cc(NC(=O)Nc3ccccc3)ccc2O[C@H]1CN(C)Cc1ccc(-c2ccccc2)cc1", "25.6% [at 0.1 µM] (inactive)"),
    ("C[C@H](CO)N1C[C@H](C)[C@H](CN(C)C(=O)Nc2cccc3ccccc23)OCCCC[C@H](C)Oc2ccc(NC(=O)C3CCCCC3)cc2C1=O", "31.6% [at 12 µM] (inactive)"),
    ("O=C(Nc1ccc(Cl)cc1)Nc1ccccc1C(=O)O", "16.5% [at 0.1 µM] (inactive)"),
    ("CO[C@@H]1CN(C)C(=O)c2ccc(NC(=O)C3CC3)cc2OC[C@@H](C)NC[C@@H]1C", "12% [at 3 µM] (inactive)"),
    ("C[C@H](CO)N1C[C@H](C)[C@H](CN(C)C(=O)Nc2ccc3c(c2)OCO3)OCCCC[C@H](C)Oc2ccc(NC(=O)C3CCCCC3)cc2C1=O", "17.6% (inactive)"),
    ("Cc1ccc(S(=O)(=O)N(C)C[C@H]2Oc3c(cccc3N(C)C)C(=O)N([C@@H](C)CO)C[C@@H]2C)cc1", "10.6% [at 6 µM] (inactive)"),
    ("Cc1ccc(-c2nc(-c3ccncc3)no2)cc1C", "-14.8% (inactive)"),
    ("CC(C)c1ccc(NC(=O)N2CCN(S(=O)(=O)c3ccccc3)CC2)cc1", "17.9% [at 0.38 µM] (inactive)"),
    ("Cc1ccc(-n2[nH]c(=O)c(-c3ccccn3)c2C)cc1", "41.3% [at 12 µM] (inactive)"),
    ("Cc1oc(-c2ccc3c(c2)OCCO3)cc1C(=O)O", "-18.6% (inactive)"),
    ("CO[C@H]1CN(C)C(=O)c2ccc(NC(=O)c3ccc(-c4ccccc4)cc3)cc2OC[C@@H](C)NC[C@@H]1C", "20.6% [at 0.8 µM] (inactive)"),
    ("Cc1ccc2nc(-c3ccc(NC(=O)C4CCCO4)cc3)[nH]c2c1 (stereo not given)", "41.8% (inactive)"),
    ("O=C(CC1CS(=O)(=O)CC1CC(=O)Nc1ccc2c(c1)OCCO2)Nc1ccc2c(c1)OCCO2 (stereo not given)", "38.3% [at 0.8 µM] (inactive)"),
    ("O=C(c1cc(-c2ccc(Cl)cc2Cl)on1)N1CCCC1", "9.97% [at 0.8 µM] (inactive)"),
]
